- Test system: KPC or KC cells
- Experiment summary: uptake of [3H] from [3H]-proline-labelled ECM
- Assay type: cell-based, mouse
- Measurement conditions: cells plated on wild-type ECM, LG medium, 24 h
Endpoint: uptake of [3H]

* CCN(c1nc(N)c(C(=O)NC(=N)N)nc1Cl)C(C)C | sensitivity
* C[C@H](NC(=O)c1c(N)nn2cccnc12)c1cc2cccc(C#Cc3cnn(C)c3)c2c(=O)n1-c1ccccc1 | sensitivity
* CCn1c2ccccc2c2cc(-n3nncc3-c3ccccc3)ccc21 (racemic) | sensitivity
